Numbers sourced from patent US11999727B2.

Reported IC50 is given for each of the following compounds.
target: PRMT5 (Homo sapiens); construct: purchased Viva (custom protein); assay: PRMT5 biochemical IC50 assay with SAM as cofactor; details: PRMT5, SAM as cofactor; read-out: SAM IC50

Record excerpt, results attached:
- Compound: "Cc1cncc(NC(=O)C(=O)N2C[C@H](C)CCC2c2cccc(F)c2)c1 (single isomer, unassigned)"
  IC50: "50 to 500 nM"
- Compound: "C[C@H]1CC[C@H](c2ccccc2)N(C(=O)C(=O)Nc2cncc(C(N)=O)c2)[C@H]1C (single isomer, unassigned)"
  IC50: "50 to 500 nM"
- Compound: "Cc1cc(NC(=O)C(=O)N2C[C@@H](C)CC[C@@H]2c2cccc(N3CCN(C)CC3)c2)cnc1N (single isomer, unassigned)"
  IC50: "< 50 nM"
- Compound: "CCc1cc(NC(=O)C(=O)N2C[C@@H](C)CC[C@@H]2c2ccc(N3CCN(C)CC3)c(C)c2)cnc1N"
  IC50: "50 to 500 nM"
- Compound: "C[C@H]1CC[C@H](c2cc(F)c(F)c(F)c2)N(C(=O)C(=O)Nc2cncc(C(N)=O)c2)C1 (single isomer, unassigned)"
  IC50: "50 to 500 nM"
- Compound: "COc1ncc(NC(=O)C(=O)N2CCCCC2c2ccccc2)cc1C(N)=O (single isomer, unassigned) [Compound 199]"
  IC50: "> 500 nM"
- Compound: "CCc1cc(NC(=O)C(=O)N2C[C@@H](C)CC[C@@H]2c2ccc3sc(C4CCN(CC(F)F)CC4)nc3c2)cnc1N"
  IC50: "< 50 nM"
- Compound: "C[C@@H]1CC[C@@H](c2ccc(O)c(F)c2)N(C(=O)C(=O)Nc2cncc(C(N)=O)c2)C1 (single isomer, unassigned)"
  IC50: "> 500 nM"

# lookup: IC50 of `CCc1cc(NC(=O)C(=O)N2C[C@@H](C)CC[C@@H]2c2cccc(Oc3cccnc3)c2)cnc1N`
50 to 500 nM

Now the same for C[C@@]1(F)CC[C@H](c2ccccc2)N(C(=O)C(=O)Nc2cncc(C(N)=O)c2)C1 (single isomer, unassigned)
50 to 500 nM

Now the same for `CCc1cc(NC(=O)C(=O)N2C[C@@H](C)CC[C@@H]2c2ccc3sc([C@H]4C[C@H](N(C)C)C4)nc3c2)cnc1N`
< 50 nM

* * *

biological target: PRMT5 (Homo sapiens); construct: purchased Viva (custom protein); assay: PRMT5 biochemical IC50 assay with SAM as cofactor; details: PRMT5, SAM as cofactor; read-out: SAM IC50
Reported IC50 is given for each of the following compounds.

Record excerpt, results attached:
- Compound: "CC1CC(C)C(c2ccccc2)N(C(=O)C(=O)Nc2cncc(C(N)=O)c2)C1 (stereo not drawn)"
  IC50: "> 0.5 µM"
- Compound: "O=Cc1cncc(NC(=O)C(=O)N2CCCCC2c2ccccc2)c1 (stereo not drawn)"
  IC50: "> 0.5 µM"

Next, consider the following compound.
# lookup: IC50 of Cc1cc(NC(=O)C(=O)N2C[C@@H](C)CC[C@@H]2c2ccc3[nH]c(=O)ccc3c2)cnc1N (single isomer, unassigned)
< 0.05 µM

* * *

test system: HAP1 MTAP-deleted cell line; experiment: SDMA in-cell western assay, HAP1 MTAP-deleted; type: cell-based; conditions: Homo sapiens, HAP1, SDMA in-cell western, HAP1 MTAP-deleted; read-out: HAP1 MTAP deleted IC50
Endpoint label: IC50

- Molecule: "C[C@@H]1CC[C@@H](c2cc(Cl)cc(Cl)c2)N(C(=O)C(=O)Nc2cncc(C(N)=O)c2)C1 (single isomer, unassigned) [Compound 490]"
  IC50: "> 1 µM"

# lookup: IC50 of CCOc1ncc(NC(=O)C(=O)N2C[C@@H](C)CC[C@@H]2c2ccccc2)cc1C(N)=O (single isomer, unassigned) [Compound 764]
0.1 to 1 µM

Now the same for CCc1cc(NC(=O)C(=O)N2C[C@@H](C)CC[C@@H]2c2ccc3sc(CCN(C)C)nc3c2)cnc1N (single isomer, unassigned) [Compound 1196]
< 0.1 µM

* * *

Reported IC50 is given for each of the following compounds.
biological target: PRMT5 (Homo sapiens, UniProt O14744); construct: purchased Viva (custom protein); experiment: PRMT5 biochemical IC50 assay with no cofactor; conditions: PRMT5, no cofactor; read-out: No Cofactor/ rel IC50
Sequence (O14744 whole entry): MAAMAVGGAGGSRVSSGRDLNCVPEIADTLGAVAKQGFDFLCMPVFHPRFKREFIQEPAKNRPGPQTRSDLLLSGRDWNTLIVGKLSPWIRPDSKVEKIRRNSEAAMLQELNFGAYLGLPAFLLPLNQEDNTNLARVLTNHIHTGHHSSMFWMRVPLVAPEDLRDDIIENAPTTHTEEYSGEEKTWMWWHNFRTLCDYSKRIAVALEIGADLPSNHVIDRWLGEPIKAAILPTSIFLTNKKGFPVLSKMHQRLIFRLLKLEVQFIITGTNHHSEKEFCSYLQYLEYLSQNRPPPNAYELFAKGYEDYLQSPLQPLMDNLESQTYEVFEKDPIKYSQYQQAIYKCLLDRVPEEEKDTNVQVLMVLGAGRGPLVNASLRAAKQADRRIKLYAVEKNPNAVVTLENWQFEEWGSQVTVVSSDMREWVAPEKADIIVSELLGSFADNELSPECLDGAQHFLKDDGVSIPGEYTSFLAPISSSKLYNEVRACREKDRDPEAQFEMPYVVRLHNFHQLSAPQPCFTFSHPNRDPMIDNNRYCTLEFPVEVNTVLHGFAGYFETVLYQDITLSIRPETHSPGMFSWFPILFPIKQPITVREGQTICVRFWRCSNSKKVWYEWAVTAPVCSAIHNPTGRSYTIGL
Sequence (Q9BQA1 whole entry partner): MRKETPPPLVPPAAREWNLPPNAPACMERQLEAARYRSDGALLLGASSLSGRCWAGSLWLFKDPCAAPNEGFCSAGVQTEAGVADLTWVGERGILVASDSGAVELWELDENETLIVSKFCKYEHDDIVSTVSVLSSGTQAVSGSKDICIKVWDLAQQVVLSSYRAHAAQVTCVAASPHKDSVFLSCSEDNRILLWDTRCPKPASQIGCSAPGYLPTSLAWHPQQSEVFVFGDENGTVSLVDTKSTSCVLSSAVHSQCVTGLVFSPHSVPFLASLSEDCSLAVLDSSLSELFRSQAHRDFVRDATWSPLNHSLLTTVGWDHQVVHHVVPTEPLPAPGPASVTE

Record excerpt, results attached:
- Compound: "NC(=O)c1cncc(NC(=O)C(=O)N2CCCC[C@H]2c2ccccc2)c1 (single isomer, unassigned)"
  Result: "> 500 nM"
- Compound: "C[C@H]1CC[C@H](c2ccc3sc(C4CCN(C)CC4)nc3c2)N(C(=O)C(=O)Nc2cncc(C(N)=O)c2)C1 (single isomer, unassigned)"
  Result: "< 50 nM"
- Compound: "CCc1cc(NC(=O)C(=O)N2C[C@@H](C)CC[C@@H]2c2ccc3sc(N4CCOCC4)nc3c2)cnc1N"
  Result: "< 50 nM"

# lookup: IC50 of CCc1cc(NC(=O)C(=O)N2C[C@@H](C)CC[C@@H]2c2ccc3sc([C@@H]4CCN(C)C4)nc3c2)cnc1N (single isomer, unassigned)
< 50 nM

* * *

molecular target: PRMT5 (Homo sapiens); construct: purchased Viva (custom protein); assay: PRMT5 biochemical IC50 assay with SAM as cofactor; conditions: PRMT5, SAM as cofactor; read-out: SAM IC50
pIC50: −log10 of the molar value.
Endpoint label: pIC50

Record excerpt, results attached:
- Molecule: "CCc1cc(NC(=O)C(=O)N2C[C@@H](C)CC[C@@H]2c2ccc3sc([C@H]4CN(C)C(=O)CN4C)nc3c2)cnc1N [Compound 1385]"
  Test target: "PRMT5 (Homo sapiens)"
  pIC50: "6.30 to 7.30"
- Molecule: "Cc1cc(NC(=O)C(=O)N2C[C@H](C)[C@H](OC(C)C)C[C@H]2c2ccccc2)cnc1N (single isomer, unassigned) [Compound 1351]"
  Test target: "PRMT5 (Homo sapiens)"
  pIC50: "> 7.30"
- Molecule: "Cc1cc(NC(=O)C(=O)N2CC3(CCC2c2ccc(F)cc2)CC3)cnc1N (stereo not drawn) [Compound 753]"
  Test target: "PRMT5 (Homo sapiens)"
  pIC50: "6.30 to 7.30"
- Molecule: "CCc1cc(NC(=O)C(=O)N2CC(C)CCC2c2ccc3sc(C4CCN(C)CC4C)nc3c2)cnc1N (racemic) [Compound 1131]"
  Test target: "PRMT5 (Homo sapiens)"
  pIC50: "> 7.30"

# lookup: pIC50 of CCc1cc(NC(=O)C(=O)N2C[C@H](C)CC[C@H]2c2ccc3[nH]c(=O)ccc3c2)cnc1N (single isomer, unassigned) [Compound 819]
< 6.30

Now the same for CC(=O)Nc1ccc([C@H]2CC[C@H](C)CN2C(=O)C(=O)Nc2cnc(N)c(C)c2)s1 (single isomer, unassigned) [Compound 717]
< 6.30

Now the same for Cc1cc(NC(=O)C(=O)N2CCCC[C@@H]2c2cccs2)cnc1N (single isomer, unassigned) [Compound 24]
6.30 to 7.30

* * *

Reported IC50 is given for each of the following compounds.
target: PRMT5 (Homo sapiens); construct: purchased Viva (custom protein); test: PRMT5 biochemical IC50 assay with no cofactor; details: PRMT5, no cofactor; read-out: No Cofactor/rel IC50

- Compound: "C[C@@H]1CC[C@@H](c2ccc(CC3CC3)cc2)N(C(=O)C(=O)Nc2cncc(C(N)=O)c2)C1 (racemic)"
  Test target: "PRMT5 (Homo sapiens)"
  Result: "50 to 500 nM"
- Compound: "C[C@H]1CC[C@H](c2ccc(Cl)cc2)N(C(=O)C(=O)Nc2cncc(C(N)=O)c2)C1 (single isomer, unassigned)"
  Test target: "PRMT5 (Homo sapiens)"
  Result: "> 500 nM"
- Compound: "Cc1cc(NC(=O)C(=O)N2CCCC[C@H]2c2cccc(N(C)C)c2)cnc1N (single isomer, unassigned)"
  Test target: "PRMT5 (Homo sapiens)"
  Result: "< 50 nM"
- Compound: "CCc1cc(NC(=O)C(=O)N2C[C@@H](C)CC[C@@H]2c2ccc3sc(C4(F)CCN(C)CC4)nc3c2)cnc1N"
  Test target: "PRMT5 (Homo sapiens)"
  Result: "< 50 nM"

# lookup: IC50 of COc1ncc(NC(=O)C(=O)N2C[C@H](C)C(F)(F)C[C@H]2c2ccc(F)cc2)cc1C(N)=O (single isomer, unassigned)
50 to 500 nM

Now the same for CCC(C)C1CCCCN1C(=O)C(=O)Nc1cnc(N)c(C)c1 (stereo not drawn)
> 500 nM

* * *

molecular target: PRMT5 (Homo sapiens, UniProt O14744); construct: purchased Viva (custom protein); test: PRMT5 biochemical IC50 assay with no cofactor; conditions: PRMT5, no cofactor; read-out: No Cofactor/rel IC50
pIC50: −log10 of the molar value.
Endpoint label: pIC50

Param readout= pIC50; system= PRMT5 (Homo sapiens, UniProt O14744); entry= C[C@H]1CC[C@H](c2cccc3[nH]ncc23)N(C(=O)C(=O)Nc2cncc(C(N)=O)c2)C1 (single isomer, unassigned) [Compound 897] ; returns value.
6.30 to 7.30

Now the same for Cc1cc([C@@H]2CC[C@@H](C)CN2C(=O)C(=O)Nc2cnc(N)c(C)c2)ccc1O (single isomer, unassigned) [Compound 572]
6.30 to 7.30

Now the same for Cc1cc(NC(=O)C(=O)N2C[C@H](C)C(F)(F)C[C@H]2c2cccc3[nH]ncc23)cnc1N (single isomer, unassigned) [Compound 1041]
> 7.30

Now the same for CC1(C)CCC[C@@H]2CN(C(=O)C(=O)Nc3cncc(C(N)=O)c3)CC[C@H]21 (single isomer, unassigned) [Compound 193]
6.30 to 7.30

Now the same for CCc1cc(NC(=O)C(=O)N2C[C@@H](C)CC[C@@H]2c2cccc(OC[C@H]3CCN(C)C3)c2)cnc1N [Compound 1179]
> 7.30

Now the same for CC[C@@H]1CC[C@@H](c2ccccc2)N(C(=O)C(=O)Nc2cncc(C(N)=O)c2)C1 (single isomer, unassigned) [Compound 576]
< 6.30

Now the same for Cc1cc(NC(=O)C(=O)N2CC3(CCC2c2ccc(F)cc2)CC3)cnc1N (stereo not shown) [Compound 753]
6.30 to 7.30

Now the same for COc1ncc(NC(=O)C(=O)N2C[C@@H](C)CC[C@@H]2c2ccc3cnccc3c2)cc1C(N)=O (single isomer, unassigned) [Compound 914]
> 7.30

Now the same for C[C@@H]1C[C@H](c2ccccc2)N(C(=O)C(=O)Nc2cncc(C(N)=O)c2)C[C@@H]1C (racemic) [Compound 229]
< 6.30

Now the same for CCc1cc(NC(=O)C(=O)N2C[C@@H](C)CC[C@@H]2c2ccc(CCN(C)C)cc2)cnc1N [Compound 1228]
> 7.30
